Listed here: items and their measured Emax.
target: F508delCFTR (Homo sapiens, UniProt P13569, DEL508-508); construct: expressed in transfected cells; host or cells: CFBE41o- human lung derived epithelial cells (CFBE41o-F508delCFTR-HRP), doxycycline-inducible; test: Cell Surface Expression-Horse Radish Peroxidase (CSE-HRP) Assay; type: cell-based; settings: test compound without co-corrector; maximum at any tested concentration; read-out: Maximum % activity (without co-corrector);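 for Maximum % activity (without co-corrector): % of on-plate positive control chromenyl benzoic acid corrector at 2 or 3 µM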
Sequence (P13569 with tags, fused parts or gaps DEL508-508): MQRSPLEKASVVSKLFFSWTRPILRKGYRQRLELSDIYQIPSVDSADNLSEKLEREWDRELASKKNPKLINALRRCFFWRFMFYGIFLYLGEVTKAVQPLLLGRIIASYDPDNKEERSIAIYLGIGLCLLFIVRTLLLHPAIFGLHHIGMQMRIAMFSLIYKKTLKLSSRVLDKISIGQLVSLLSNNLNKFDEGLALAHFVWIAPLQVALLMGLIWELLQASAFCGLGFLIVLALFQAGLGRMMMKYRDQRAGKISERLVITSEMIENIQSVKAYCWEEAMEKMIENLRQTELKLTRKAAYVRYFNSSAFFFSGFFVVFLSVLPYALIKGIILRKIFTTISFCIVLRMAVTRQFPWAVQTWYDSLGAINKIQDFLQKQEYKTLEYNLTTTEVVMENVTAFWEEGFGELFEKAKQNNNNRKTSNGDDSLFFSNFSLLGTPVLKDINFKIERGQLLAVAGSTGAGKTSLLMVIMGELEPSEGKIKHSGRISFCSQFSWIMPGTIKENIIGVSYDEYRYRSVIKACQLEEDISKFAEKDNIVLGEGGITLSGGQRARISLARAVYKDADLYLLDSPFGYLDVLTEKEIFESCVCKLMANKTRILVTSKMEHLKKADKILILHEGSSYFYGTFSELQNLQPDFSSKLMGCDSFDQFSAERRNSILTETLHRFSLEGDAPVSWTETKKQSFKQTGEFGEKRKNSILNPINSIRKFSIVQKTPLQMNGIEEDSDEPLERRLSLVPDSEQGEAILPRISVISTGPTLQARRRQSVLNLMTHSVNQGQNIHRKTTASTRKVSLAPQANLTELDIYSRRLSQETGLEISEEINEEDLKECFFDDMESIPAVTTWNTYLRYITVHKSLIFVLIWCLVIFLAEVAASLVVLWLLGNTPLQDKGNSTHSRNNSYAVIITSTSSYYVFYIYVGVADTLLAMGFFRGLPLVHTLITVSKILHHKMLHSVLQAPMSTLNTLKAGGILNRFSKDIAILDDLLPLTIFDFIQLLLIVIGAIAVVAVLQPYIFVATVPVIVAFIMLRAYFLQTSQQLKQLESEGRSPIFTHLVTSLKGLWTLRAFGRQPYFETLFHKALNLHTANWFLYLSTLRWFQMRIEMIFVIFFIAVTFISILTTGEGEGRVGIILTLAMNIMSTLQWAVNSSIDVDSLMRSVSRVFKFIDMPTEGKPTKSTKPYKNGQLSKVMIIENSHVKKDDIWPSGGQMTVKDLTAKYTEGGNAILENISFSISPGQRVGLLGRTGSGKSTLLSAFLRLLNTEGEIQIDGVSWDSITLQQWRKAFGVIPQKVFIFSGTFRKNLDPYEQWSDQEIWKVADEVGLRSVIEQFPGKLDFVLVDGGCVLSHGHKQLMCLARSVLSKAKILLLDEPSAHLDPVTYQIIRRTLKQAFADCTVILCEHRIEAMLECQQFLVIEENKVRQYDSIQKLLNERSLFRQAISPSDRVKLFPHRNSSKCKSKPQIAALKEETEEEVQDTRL

CC(C)COc1ncc(C2CCC2)cc1C1(C(=O)NS(=O)(=O)c2cccc3ncccc23)CC1 = > 150%

INPUT: Report Emax from F508delCFTR (Homo sapiens, UniProt P13569, DEL508-508) testing of CC(C)Oc1ccc(C2CCC2)nc1C1(C(=O)NS(=O)(=O)c2cccc3ncccc23)CC1
OUTPUT: > 150%

INPUT: Report Emax from F508delCFTR (Homo sapiens, UniProt P13569, DEL508-508) testing of CCc1cnc(OCCOC)c(C2(C(=O)NS(=O)(=O)c3cccc4nc(C)ccc34)CC2)c1
OUTPUT: > 150%

INPUT: Report Emax from F508delCFTR (Homo sapiens, UniProt P13569, DEL508-508) testing of CCc1ccncc1C1(C(=O)NS(=O)(=O)c2cccc3ccccc23)CC1
OUTPUT: 50 to 150%

INPUT: Report Emax from F508delCFTR (Homo sapiens, UniProt P13569, DEL508-508) testing of CC(C)Oc1ncccc1C1(C(=O)NS(=O)(=O)c2cccc3ccccc23)CC1
OUTPUT: 50 to 150%

INPUT: Report Emax from F508delCFTR (Homo sapiens, UniProt P13569, DEL508-508) testing of CC(C)Oc1ncc(C2CC2)cc1C1(C(=O)NS(=O)(=O)c2cccc3[nH]ccc23)CC1
OUTPUT: > 150%

INPUT: Report Emax from F508delCFTR (Homo sapiens, UniProt P13569, DEL508-508) testing of CC(C)Oc1ncc(N2CCCC2)cc1C1(C(=O)NS(=O)(=O)c2cccc3ncccc23)CC1
OUTPUT: > 150%

INPUT: Report Emax from F508delCFTR (Homo sapiens, UniProt P13569, DEL508-508) testing of O=C(NS(=O)(=O)c1cccc2[nH]ccc12)C1(c2cc(C3CCC3)cnc2OCC2CC2)CC1
OUTPUT: > 150%

* * *

biological target: F508delCFTR (Homo sapiens, UniProt P13569, DEL508-508); construct: expressed in transfected cells; host or cells: CFBE41o- human lung derived epithelial cells (CFBE41o-F508delCFTR-HRP), doxycycline-inducible; assay: Cell Surface Expression-Horse Radish Peroxidase (CSE-HRP) Assay; assay type: cell-based; conditions: test compound with co-corrector; maximum at any tested concentration
assayReadout: Maximum % activity (with co-corrector)

COc1cc(C2(C(=O)NS(=O)(=O)c3cccc4nc(C)ccc34)CC2)c(OCC(F)F)cn1 = +++ (≥350)
CC(C)COc1ncc(C2CC2)cc1C1(C(=O)NS(=O)(=O)c2cccc3[nH]ccc23)CC1 = +++ (≥350)
CC(C)Oc1ccc(C2CCC2)nc1C1(C(=O)NS(=O)(=O)c2cccc3ncccc23)CC1 = +++ (≥350)
COc1ccc(C2(C(=O)NS(=O)(=O)c3cccc4ccccc34)CC2)c(C)n1 = +++ (≥350)
CCc1cnc(N2CCC(OC)CC2)c(C2(C(=O)NS(=O)(=O)c3cccc4[nH]ccc34)CC2)c1 = +++ (≥350)

Next compound, Maximum % activity (with co-corrector) to be filled in.
INPUT: Specify Maximum % activity (with co-corrector) for Cc1cnc(N2CCCC2)c(C2(C(=O)NS(=O)(=O)c3cccc4nc(C)ccc34)CC2)c1 and stop.
OUTPUT: +++ (≥350)

* * *

biological target: F508delCFTR (Homo sapiens, UniProt P13569, DEL508-508); construct: expressed in transfected cells; host or cells: CFBE41o- human lung derived epithelial cells (CFBE41o-F508delCFTR-HRP), doxycycline-inducible; assay: Cell Surface Expression-Horse Radish Peroxidase (CSE-HRP) Assay; type: cell-based; details: test compound alone, without co-corrector; read-out: EC50 (without co-corrector)
assayReadout: EC50

Example compounds with recorded EC50:
COc1ccc(C2CCC2)cc1C1(C(=O)NS(=O)(=O)c2cccc3nc(N)ccc23)CC1 = 3 to 10 µM
COc1ncc(C2CCC2)cc1C1(C(=O)NS(=O)(=O)c2cccc3c2CCCN3)CC1 = < 3 µM
O=C1CCCN1c1ccc(S(=O)(=O)NC(=O)C2(c3ccc(Cl)cc3Cl)CC2)cc1 = > 10 µM
COc1ccc(C2(OC)COC2)cc1C1(C(=O)NS(=O)(=O)c2cccc3ncccc23)CC1 = 3 to 10 µM
COc1ccc(C2CC2)c(C)c1C1(C(=O)NS(=O)(=O)c2cccc3[nH]ncc23)CC1 = < 3 µM
COc1ccc(C(C)(C)OC)cc1C1(C(=O)NS(=O)(=O)c2cccc3[nH]ccc23)CC1 = 3 to 10 µM
CCOC(C)(C)c1ccc(OC)c(C2(C(=O)NS(=O)(=O)c3cccc4ncccc34)CC2)c1 = < 3 µM
O=C(NS(=O)(=O)Cc1ccccc1)C1(c2ccccc2F)CC1 = > 10 µM

INPUT: Report EC50 from F508delCFTR (Homo sapiens, UniProt P13569, DEL508-508) testing of CCOc1ccc(C)cc1C1(C(=O)NS(=O)(=O)c2cccc3[nH]ncc23)CC1
OUTPUT: < 3 µM

INPUT: Report EC50 from F508delCFTR (Homo sapiens, UniProt P13569, DEL508-508) testing of O=C(OCc1ccccc1)N1CCC(S(=O)(=O)NC(=O)C2(c3ccc(Cl)c(Cl)c3)CC2)CC1
OUTPUT: > 10 µM

INPUT: Report EC50 from F508delCFTR (Homo sapiens, UniProt P13569, DEL508-508) testing of CCc1cccc(OC)c1C1(C(=O)NS(=O)(=O)c2cccc3[nH]ncc23)CC1
OUTPUT: < 3 µM

INPUT: Report EC50 from F508delCFTR (Homo sapiens, UniProt P13569, DEL508-508) testing of COc1ccc(C2CC2)c(C)c1C1(C(=O)NS(=O)(=O)c2cccc3ncccc23)CC1
OUTPUT: < 3 µM

* * *

molecular target: F508delCFTR (Homo sapiens, UniProt P13569, DEL508-508); construct: expressed in transfected cells; host or cells: CFBE41o- human lung derived epithelial cells (CFBE41o-F508delCFTR-HRP), doxycycline-inducible; test: Cell Surface Expression-Horse Radish Peroxidase (CSE-HRP) Assay; format: cell-based; conditions: test compound alone, without co-corrector; read-out: EC50 (without co-corrector)
pEC50: −log10 of the molar value.
assayReadout: pEC50

Example compounds with recorded pEC50:
COc1cc(C2CCC2)cc(OC)c1C1(C(=O)NS(=O)(=O)c2cccc3ccn(C)c23)CC1 = > 5.52
O=C(NS(=O)(=O)c1cccc2ncccc12)C1(c2cc(C3CCC3)cnc2N2CCCC2)CC1 = 5.00 to 5.52

INPUT: Specify pEC50 for COc1ccc(OC(C)C)cc1C1(C(=O)NS(=O)(=O)c2cccc3ncccc23)CC1 and stop.
OUTPUT: > 5.52

INPUT: Specify pEC50 for CCOC(C)(C)c1ccc(OC(F)F)c(C2(C(=O)NS(=O)(=O)c3cccc4ncccc34)CC2)c1 and stop.
OUTPUT: 5.00 to 5.52

* * *

target: F508delCFTR (Homo sapiens, UniProt P13569, DEL508-508); construct: expressed in transfected cells; host or cells: CFBE41o- human lung derived epithelial cells (CFBE41o-F508delCFTR-HRP), doxycycline-inducible; assay: Cell Surface Expression-Horse Radish Peroxidase (CSE-HRP) Assay; assay type: cell-based; conditions: test compound with co-corrector; maximum at any tested concentration
assayReadout: Maximum % activity (with co-corrector)

O=C(NS(=O)(=O)c1cccc2ncccc12)C1(c2cc(Cl)cnc2N2CCCC2)CC1 [Example GI-35] = +++ (≥350)
CCc1cnc(OCC(C)C)c(C2(C(=O)NS(=O)(=O)c3cccc4nc(C)ccc34)CC2)c1 [Example GI-46] = +++ (≥350)

* * *

Target: F508delCFTR (Homo sapiens, UniProt P13569, DEL508-508)
Construct: expressed in transfected cells; host or cells: CFBE41o- human lung derived epithelial cells (CFBE41o-F508delCFTR-HRP), doxycycline-inducible
Assay: Cell Surface Expression-Horse Radish Peroxidase (CSE-HRP) Assay
Format: cell-based
Details: test compound alone, without co-corrector; read-out: EC50 (without co-corrector)
Method: A cellular assay for measuring the F508delCFTR cell surface expression after correction with test compounds either without or with a co-corrector (2 μM of 3-[(2R,4R)-4-({[1-(2,2-difluoro-1,3-benzodioxol-5-yl)cyclopropyl]carbonyl}amino)-7-methoxy-3,4-dihydro-2H-chromen-2-yl]benzoic acid), was developed in human lung derived epithelial cell line (CFBE4lo−) (Veit G et al, (2012) Mol Biol Cell. 23(21): 4188-4202). […] The raw counts from the experiment were analyzed using Accelrys® Assay Explorer v3.3. […]
assayReadout: EC50

INPUT: Specify EC50 for COC[C@H](C)Oc1ccc(C)cc1C1(C(=O)NS(=O)(=O)c2cccc3nc(C)ccc23)CC1 and stop.
OUTPUT: < 3 µM

INPUT: Specify EC50 for COc1cc(C2(C(=O)NS(=O)(=O)c3cccc4ncccc34)CC2)c(OCC(C)C)cn1 and stop.
OUTPUT: 3 to 10 µM

INPUT: Specify EC50 for COc1ccc(C(F)(F)F)cc1C1(C(=O)NS(=O)(=O)c2cccc3ncccc23)CC1 and stop.
OUTPUT: < 3 µM

INPUT: Specify EC50 for COc1ccc(C#N)cc1C1(C(=O)NS(=O)(=O)c2cccc3c2CCCN3)CC1 and stop.
OUTPUT: 3 to 10 µM

INPUT: Specify EC50 for COc1nc2ccccc2cc1C1(C(=O)NS(=O)(=O)c2cccc3ncccc23)CC1 and stop.
OUTPUT: 3 to 10 µM

INPUT: Specify EC50 for CC(C)(C)OC(=O)N1CCC(C(=O)NS(=O)(=O)c2cccc3ccccc23)(c2ccc(F)cc2)CC1 and stop.
OUTPUT: 3 to 10 µM

INPUT: Specify EC50 for Cc1ccc(OC(C)C)c(C2(C(=O)NS(=O)(=O)c3cccc4[nH]ncc34)CC2)c1 and stop.
OUTPUT: < 3 µM

INPUT: Specify EC50 for CO[C@@H](C)COc1ccc(C)cc1C1(C(=O)NS(=O)(=O)c2cccc3ncccc23)CC1 and stop.
OUTPUT: < 3 µM

INPUT: Specify EC50 for CCC(C)c1ccc(OC)c(C2(C(=O)NS(=O)(=O)c3cccc4c3CCCN4)CCC2)c1 (stereo not shown) and stop.
OUTPUT: 3 to 10 µM

INPUT: Specify EC50 for O=C(NS(=O)(=O)C1CC1)C1(c2ccc(Cl)cc2Cl)CC1 and stop.
OUTPUT: > 10 µM
